The measurements presented in this section are drawn from ChEMBL document CHEMBL1667725.

# targetUnderTest: Retinoic acid receptor alpha (Homo sapiens) (UniProt P10276)
# Sequence (P10276 whole entry, the tested form may be a part): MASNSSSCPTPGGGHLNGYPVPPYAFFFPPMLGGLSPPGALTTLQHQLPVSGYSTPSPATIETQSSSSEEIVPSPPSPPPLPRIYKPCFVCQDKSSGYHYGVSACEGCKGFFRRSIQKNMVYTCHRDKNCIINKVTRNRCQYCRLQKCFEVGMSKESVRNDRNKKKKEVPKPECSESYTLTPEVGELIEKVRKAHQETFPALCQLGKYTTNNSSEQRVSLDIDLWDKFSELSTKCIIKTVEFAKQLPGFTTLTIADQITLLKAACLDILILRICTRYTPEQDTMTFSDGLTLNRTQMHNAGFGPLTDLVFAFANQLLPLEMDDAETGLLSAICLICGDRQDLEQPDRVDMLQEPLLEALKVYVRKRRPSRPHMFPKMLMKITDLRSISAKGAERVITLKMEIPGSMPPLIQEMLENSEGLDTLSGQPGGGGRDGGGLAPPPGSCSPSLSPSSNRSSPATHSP
# runDescription: Effect on human Gal4-fused RAR alpha at 10 uM by luciferase reporter gene assay
The source made the active and inactive calls. No cut-off for these calls is given here.
measuredEndpoint: Activity

compound: CC(C)=CCCC1=C[C@@H](C/C(C)=C/CC[C@@]2(C)C=Cc3cc(O)cc(C)c3O2)OC1=O [TUBERATOLIDE B]
testResult: inactive

compound: CC(C)=CCC/C(=C/CC/C(C)=C/CC[C@]1(C)C=Cc2cc(O)cc(C)c2O1)C(=O)O [(R)-SARGACHROMENOL]
testResult: inactive

compound: CC(C)=CCC/C(=C/CC/C(C)=C/CC[C@@]1(C)C=Cc2cc(O)cc(C)c2O1)C(=O)O [(S)-SARGACHROMENOL]
testResult: inactive

compound: CC(C)=CCCC1=C[C@@H](C/C(C)=C/CC/C(C)=C/CC2=CC(=O)C=C(C)C2=O)OC1=O [YEZOQUINOLIDE]
testResult: inactive

compound: CC(C)=CCCC1=C[C@@H](C/C(C)=C/CC[C@]2(C)C=Cc3cc(O)cc(C)c3O2)OC1=O [2'-EPI-TUBERATOLIDE B]
testResult: inactive

compound: CC(=O)CC/C=C(\C)C[C@@H]1C=C(CCC=C(C)C)C(=O)O1 [TUBERATOLIDE A]
testResult: inactive
